Test system: OVCAR-4 ovarian
experimentalDetails: NCI-60 one-dose screen, 48 h
conditionParameters: 10 µM unless noted
Compounds without any hit were thinned out: in the full panel of roughly 83,000, 20% have a hit. Calls of active or inactive are those of the source. How the source made its calls: active means growth percent below 10; inactive means the rest.
Please reply with one of these outcomes: 1 (active), -1 (inactive)

Solved entries:
[
  {
    "molecule": "O=C(CN1C(=O)/C(=C\\c2ccc(Cl)cc2)SC1=S)Nc1ncc(Cc2ccc(Cl)cc2)s1",
    "targetDesc": "OVCAR-4 ovarian",
    "category": -1
  },
  {
    "molecule": "O=C1/C(=C/c2cccc(O)c2)COc2ccc(O)cc21",
    "targetDesc": "OVCAR-4 ovarian",
    "category": -1
  },
  {
    "molecule": "O=C(Nc1ccc(Cl)cc1F)c1cc(F)ccc1O",
    "targetDesc": "OVCAR-4 ovarian",
    "category": -1
  },
  {
    "molecule": "Cc1cccc2c(=O)c3c(sc12)c(NCCN)nc1ccccc13",
    "targetDesc": "OVCAR-4 ovarian",
    "category": 1
  },
  {
    "molecule": "COc1ccc(/C=C/C(=O)c2ccc3cc(OC)c(OC)cc3c2)cc1OC",
    "targetDesc": "OVCAR-4 ovarian",
    "category": -1
  },
  {
    "molecule": "COc1cccc(C(=O)Cn2cc(/C=C(\\C#N)S(=O)(=O)c3ccccc3)c3ccccc32)c1",
    "targetDesc": "OVCAR-4 ovarian",
    "category": -1
  },
  {
    "molecule": "CCCCC(O)(c1ccc(Cl)cc1)C(CN1CCOCC1)c1ccc(Cl)cc1 (configuration not stated)",
    "targetDesc": "OVCAR-4 ovarian",
    "category": -1
  },
  {
    "molecule": "CN1CCN(Cc2ccc(NC(=O)c3[nH]ncc3Nc3cc(OC4CCCC4)ncn3)cc2)CC1",
    "targetDesc": "OVCAR-4 ovarian",
    "category": -1
  },
  {
    "molecule": "COc1ccc(-c2cn[nH]c2-c2ccc(OC)c(O)c2)cc1",
    "targetDesc": "OVCAR-4 ovarian",
    "category": -1
  },
  {
    "molecule": "COc1cc2cc3c(=O)n4c(cc5cc(OC)ncc54)c(=O)n3c2cn1",
    "targetDesc": "OVCAR-4 ovarian",
    "category": -1
  }
]

As a next step, examine the molecule that follows.
q: // return assay outcome for COc1ccc(C2=Nn3c(NN)nnc3SC2)cc1
a: -1

====

Tested on: IGROV1 ovarian
experimentalDetails: NCI-60 one-dose screen, 48 h (100 = growth as untreated, 0 = no growth, -100 = all killed)
conditionParameters: 10 µM unless noted
About 83,000 compounds went through this panel and 20% of them were active in at least one assay; those are over-represented in the sample as a whole.
quantityMeasured: growth (%)
Give the number; % is assumed, so skip it.

// worked examples, growth included
[
  {
    "compound": "COc1ccc(CSc2nnc(SCC(=O)Nc3ccc(Cl)cc3)s2)cc1",
    "targetDesc": "IGROV1 ovarian",
    "growth / %": 63.6
  },
  {
    "compound": "O=C1N=c2ccccc2=C1c1sc(=Nc2ccccc2)n(Nc2ccccc2)c1O",
    "targetDesc": "IGROV1 ovarian",
    "growth / %": 96.2
  },
  {
    "compound": "CCCc1c(C)c2sc(=O)[nH]c2[nH]c1=O",
    "targetDesc": "IGROV1 ovarian",
    "growth / %": 112
  }
]

// next item, growth requested
q: Any idea what its growth is? The compound is COc1ccc(-c2cc(=O)c3c(OC)c4ccoc4c(/C=C/C=O)c3o2)cc1
a: 72.7

====

Tested on: A498 renal
experimentalDetails: NCI-60 one-dose screen, 48 h (100 = growth as untreated, 0 = no growth, -100 = all killed)
conditionParameters: 10 µM unless noted
About 83,000 compounds went through this panel and 20% of them were active in at least one assay; those are over-represented in the sample as a whole.
Tag: rule met if measured growth is not below 80%, rule not met if it is.

[
  {
    "compound": "CCOC(=O)c1cc2c(n1Cc1cc(OC)cc(OC)c1)-c1oncc1CCC2",
    "targetDesc": "A498 renal",
    "category": "rule not met"
  }
]

q: Evaluate COc1cc2nc(-c3cccc4cccnc34)nc(NC3CCN(Cc4ccccc4)CC3)c2cc1OC : growth at minimum 80%?
a: rule not met

q: Same read-out for CCN1C(=O)N(CC)C2C1NC(=S)N2/N=C/C=C/c1ccccc1OC (configuration not stated) ?
a: rule not met

q: Same read-out for COc1ccc(C2NCCc3c2[nH]c2ccccc32)cc1CN1CCN(c2ccc(F)cc2)CC1 (configuration not stated) ?
a: rule met

====

Items are presented alongside their recorded growth.
Tested on: SF-539 CNS
experimentalDetails: NCI-60 one-dose screen, 48 h (100 = growth as untreated, 0 = no growth, -100 = all killed)
conditionParameters: 10 µM unless noted
About 83,000 compounds went through this panel and 20% of them were active in at least one assay; those are over-represented in the sample as a whole.
Give the number; % is assumed, so skip it.

// worked examples, growth included
[
  {
    "molecule": "Cn1c(/C=C(\\C#N)c2cccc(C(F)(F)F)c2)nc2c(N3CCOCC3)nc(Cl)nc21",
    "unitAbbrev": "%",
    "growth": -79.9
  },
  {
    "molecule": "CCN1CCN(C(=S)SCC(=O)Nc2nc3ccc(C)cc3s2)CC1",
    "unitAbbrev": "%",
    "growth": 117
  },
  {
    "molecule": "Cc1cccc2c(=O)c3c(sc12)c(NCCN)nc1ccccc13",
    "unitAbbrev": "%",
    "growth": -85.7
  },
  {
    "molecule": "CN1C(=O)N(C)C2(c3ccccc3)n3c(s/c(=C\\c4ccccc4)c3=O)=NNC12c1ccccc1 (centres undefined)",
    "unitAbbrev": "%",
    "growth": 93.1
  },
  {
    "molecule": "O=C(Nc1ccc(-c2nc3ccc(NC(=O)c4ccc(Cl)cc4)cc3[nH]2)cc1)c1ccc(Cl)cc1",
    "unitAbbrev": "%",
    "growth": -68.2
  }
]

q: Any idea what its growth is? The molecule is O=C(Nc1ccc(-c2nc3cc4ccccc4cc3[nH]2)cc1)c1cccc(Br)c1
a: 30.8

q: Same read-out for O=Nc1c(O)ccc2ccccc12.O=Nc1c(O)ccc2ccccc12.O=Nc1c([O-])ccc2ccccc12.[Fe+3] ?
a: 96

q: Same read-out for O=S1(=O)N(Cc2ccccc2)[C@@H](Cc2ccccc2)[C@H](O)[C@H](O)[C@H](Cc2ccccc2)N1Cc1ccccc1 ?
a: -5.16

q: Same read-out for O=c1nc2sc3nc4ccccc4cc3cc-2s1 ?
a: 101

====

System: HT29 colon
experimentalDetails: NCI-60 one-dose screen, 48 h (100 = growth as untreated, 0 = no growth, -100 = all killed)
conditionParameters: 10 µM unless noted
The panel holds about 83,000 compounds, 20% with a hit somewhere; the sample as a whole holds those more often.
quantityMeasured: growth (%)
Give the number; % is assumed, so skip it.

// worked examples, growth included
[
  {
    "molecule": "O=C(CSc1ncccc1C(=O)O)Nc1ccc(Oc2ccccc2)cc1",
    "unitAbbrev": "%",
    "growth": 115
  },
  {
    "molecule": "Oc1ccc(-c2nc(-c3ccc4oc5ccc(-c6[nH]c(-c7ccc(O)cc7)nc6-c6ccccc6)cc5c4c3)c(-c3ccccc3)[nH]2)cc1",
    "unitAbbrev": "%",
    "growth": 34.6
  },
  {
    "molecule": "CC(C)(C)c1ccc(C2CC(=O)C3=C(C2)Nc2ccccc2N(C(=O)c2ccccc2Cl)C3c2ccc(F)cc2)cc1 (stereo unspecified)",
    "unitAbbrev": "%",
    "growth": -9.44
  },
  {
    "molecule": "COC(=O)c1c2c(c(C)[n+]([O-])c1C)C(=O)C=C(NCc1ccc(F)c(F)c1)C2=O",
    "unitAbbrev": "%",
    "growth": 1.02
  },
  {
    "molecule": "CC(=O)c1ccc(Nc2nc(NCCO)nc(Nc3ccc(Cl)cc3)n2)cc1",
    "unitAbbrev": "%",
    "growth": 96.8
  },
  {
    "molecule": "Oc1c(CN2CCN(c3ccccc3F)CC2)cc(Br)c2cccnc12",
    "unitAbbrev": "%",
    "growth": -63.1
  },
  {
    "molecule": "Nc1n[nH]c2ccc([C@@H]3Nc4ccc5[nH]ncc5c4[C@H]4[C@H]5CCC(C5)[C@H]43)cc12",
    "unitAbbrev": "%",
    "growth": 2.25
  },
  {
    "molecule": "COc1ccc(/C=C/C(=O)c2c(C)nc3ccccc3c2/C=C/c2ccccc2)cc1O",
    "unitAbbrev": "%",
    "growth": 71.6
  }
]

q: Any idea what its growth is? The molecule is Nc1nc(-c2cnccn2)nn1-c1nc2ccccc2s1
a: 99.7

q: Same read-out for COc1ccc(Cn2c(Br)c3c(c2Br)-c2nc(NC(=O)c4ccc(OC)cc4)sc2CC3)cc1 ?
a: 84.8

q: Same read-out for COc1ccc2oc(=O)cc(Cn3cc(Cn4cnc5c4c(=O)n(C)c(=O)n5C)nn3)c2c1 ?
a: 99

q: Same read-out for CN1CCN(c2nc(Nc3ccc(O)cc3)nc3ccccc23)CC1 ?
a: 43.4

q: Same read-out for O=C1C(Cl)=C(NCc2ccco2)C(=O)c2ccccc21 ?
a: 67.9

q: Same read-out for O=c1cc(NC2CCN(CCCc3ccccc3)CC2)c2cc(Cl)ccc2o1 ?
a: -12.9

q: Same read-out for O=NN(C(=O)NC1CCC(C(=O)O)CC1)C1CCC(C(=O)O)CC1 (stereo unspecified) ?
a: 108

q: Same read-out for CCOc1ccc(Nc2ccnc3cc(Cl)ccc23)cc1 ?
a: 1.61

q: Same read-out for COc1cc(C(C)n2cc(-c3ccccc3)nn2)ccc1OC1CCCCC1 (stereo unspecified) ?
a: 82.3

q: Same read-out for CN1C(=O)N(C)C2(c3ccccc3)OC(=S)NC12c1ccccc1 (stereo unspecified) ?
a: 89.1
